Cited source for all entries: paper PMC7221482

target: hα3β4 AChRs (Homo sapiens, UniProt P30926+P32297)
readout: IC50 (µM)
Express it in µM; write the number only.

Q: Fill in: IC50 of CN(C)CCCC1(c2ccc(F)cc2)OCc2cc(C#N)ccc21 (racemic) [(±)-citalopram] is ___
A: 5.1

* * *

target: hα4β2 AChRs ([3H]imipramine sites) (Homo sapiens, UniProt P17787+P43681); assay: [3H]Imipramine competition binding to hα4β2 AChR-containing membranes
readout: Ki (µM)
Numeric answer only, unit µM assumed.

Q: Give the reported Ki for CN(C)CCCC1(c2ccc(F)cc2)OCc2cc(C#N)ccc21 (racemic) [(±)-citalopram] (system: hα4β2 AChRs ([3H]imipramine sites) (Homo sapiens, UniProt P17787+P43681)).
A: 4.1
